The values you see were collected from patent US11034672B1.

TARGET_OF_ASSAY: WT-EGFR (A431 cell line) (Homo sapiens)
Sequence (P00533 25-1210): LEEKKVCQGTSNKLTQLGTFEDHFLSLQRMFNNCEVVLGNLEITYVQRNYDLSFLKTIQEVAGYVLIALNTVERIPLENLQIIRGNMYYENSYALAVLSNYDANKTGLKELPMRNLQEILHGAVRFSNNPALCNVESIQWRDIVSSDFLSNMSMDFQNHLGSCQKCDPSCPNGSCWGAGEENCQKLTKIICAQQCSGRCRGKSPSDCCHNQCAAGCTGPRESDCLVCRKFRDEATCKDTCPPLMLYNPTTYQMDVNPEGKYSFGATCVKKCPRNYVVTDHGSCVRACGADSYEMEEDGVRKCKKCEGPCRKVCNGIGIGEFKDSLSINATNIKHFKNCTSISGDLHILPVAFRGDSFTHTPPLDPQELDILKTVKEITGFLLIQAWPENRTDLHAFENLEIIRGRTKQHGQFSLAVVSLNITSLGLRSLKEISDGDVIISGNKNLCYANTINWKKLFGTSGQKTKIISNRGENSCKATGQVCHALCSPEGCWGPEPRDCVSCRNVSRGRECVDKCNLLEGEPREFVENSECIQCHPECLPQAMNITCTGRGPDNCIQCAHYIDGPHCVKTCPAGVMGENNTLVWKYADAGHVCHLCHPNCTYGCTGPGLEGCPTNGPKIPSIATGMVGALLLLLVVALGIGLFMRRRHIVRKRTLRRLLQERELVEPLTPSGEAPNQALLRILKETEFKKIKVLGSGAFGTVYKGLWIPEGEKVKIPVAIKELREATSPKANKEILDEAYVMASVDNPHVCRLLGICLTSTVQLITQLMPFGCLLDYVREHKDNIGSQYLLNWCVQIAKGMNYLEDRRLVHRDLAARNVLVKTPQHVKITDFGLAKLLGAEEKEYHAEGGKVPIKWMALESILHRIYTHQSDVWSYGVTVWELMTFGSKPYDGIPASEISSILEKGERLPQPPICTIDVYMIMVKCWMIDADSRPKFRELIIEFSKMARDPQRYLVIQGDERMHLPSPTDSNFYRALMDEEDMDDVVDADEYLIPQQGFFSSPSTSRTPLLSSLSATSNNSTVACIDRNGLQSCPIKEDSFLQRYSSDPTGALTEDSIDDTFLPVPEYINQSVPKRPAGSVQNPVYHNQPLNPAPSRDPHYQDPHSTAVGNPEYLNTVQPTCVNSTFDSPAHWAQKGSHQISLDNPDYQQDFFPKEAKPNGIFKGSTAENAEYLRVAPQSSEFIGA
ASSAY_NOTES: A431 cell proliferation (Cell Titer Glo), WT-EGFR
RECORDED_CONDITIONS: A431 cells, 72 hours
MEASURED_METRIC: IC50

| COMPOUND | IC50 |
| --- | --- |
| C=CC(=O)Nc1cc2c(Nc3cc(Cl)c(OCc4cccc(F)c4)cc3F)ncnc2cc1OCCN1CCOCC1 [compound 6] | > 100 nM |

Below: the item to evaluate.
Name the recorded IC50 of the item C=CC(=O)Nc1cc2c(Nc3ccc(OCc4ccccn4)c(Cl)c3)ncnc2cc1OCCN1CCOCC1 [compound 8] in your answer. > 100 nM

----------
TARGET_OF_ASSAY: EGFR V3 (Homo sapiens, UniProt P00533, DELINS30-297G)
Construct: expressed in transfected cells; host or cells: BaF3 (murine pro-B), retroviral pMXs-IRES-Blasticidin
Sequence (P00533 with tags, fused parts or gaps DELINS30-297G): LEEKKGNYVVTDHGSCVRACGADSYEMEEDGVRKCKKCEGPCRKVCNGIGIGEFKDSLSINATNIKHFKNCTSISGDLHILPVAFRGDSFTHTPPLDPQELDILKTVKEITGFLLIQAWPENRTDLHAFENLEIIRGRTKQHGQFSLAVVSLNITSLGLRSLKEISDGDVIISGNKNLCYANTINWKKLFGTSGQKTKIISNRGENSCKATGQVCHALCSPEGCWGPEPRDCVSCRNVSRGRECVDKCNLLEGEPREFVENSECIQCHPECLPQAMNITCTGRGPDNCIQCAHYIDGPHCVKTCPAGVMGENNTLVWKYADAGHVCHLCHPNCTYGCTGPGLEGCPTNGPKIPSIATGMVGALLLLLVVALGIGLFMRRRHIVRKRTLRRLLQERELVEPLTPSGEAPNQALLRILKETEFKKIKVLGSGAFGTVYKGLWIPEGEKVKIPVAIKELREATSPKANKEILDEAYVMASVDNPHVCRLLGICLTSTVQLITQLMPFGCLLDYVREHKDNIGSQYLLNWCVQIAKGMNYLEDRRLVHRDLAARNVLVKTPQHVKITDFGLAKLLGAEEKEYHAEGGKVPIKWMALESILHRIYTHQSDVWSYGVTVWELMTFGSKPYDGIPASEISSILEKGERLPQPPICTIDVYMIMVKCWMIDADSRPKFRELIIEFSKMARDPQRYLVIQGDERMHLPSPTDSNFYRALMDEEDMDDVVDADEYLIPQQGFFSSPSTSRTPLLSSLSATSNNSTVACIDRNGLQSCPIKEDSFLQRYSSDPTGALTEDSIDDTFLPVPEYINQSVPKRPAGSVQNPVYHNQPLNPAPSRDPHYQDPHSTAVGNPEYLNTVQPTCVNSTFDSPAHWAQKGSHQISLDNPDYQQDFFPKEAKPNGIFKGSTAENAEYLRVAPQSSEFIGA
ASSAY_NOTES: Activity for inhibiting EGFR (Table A), EGFR V3 (EGFR-Viii)
Format: cell-based
RECORDED_CONDITIONS: read-out: EGFR V3, potency code (IC50)
MEASURED_METRIC: IC50

| MOLECULE | TARGET_OF_ASSAY | IC50 |
| --- | --- | --- |
| CC#CC(=O)Nc1cc2c(Nc3ccc(OCc4ccccn4)c(Cl)c3)ncnc2cc1OCCN1CCOCC1 | EGFR V3 (Homo sapiens, UniProt P00533, DELINS30-297G) | 0.01 to 0.02 µM |

Report IC50 under test system EGFR V3 (Homo sapiens, UniProt P00533, DELINS30-297G) for C=CC(=O)Nc1cc2c(Nc3ccc(OCc4ccccn4)c(Cl)c3)ncnc2cc1OC1CC(N(C)C)C1 (centres unmarked) . 0.01 to 0.02 µM

Report IC50 under test system EGFR V3 (Homo sapiens, UniProt P00533, DELINS30-297G) for C=CC(=O)Nc1cc2c(Nc3ccc(OCc4ccccn4)c(Cl)c3)ncnc2cc1OCCN1CCC(OC)CC1 . 0.03 to 0.05 µM

Report IC50 under test system EGFR V3 (Homo sapiens, UniProt P00533, DELINS30-297G) for C=CC(=O)Nc1cc2c(Nc3ccc(OCc4ccncn4)c(Cl)c3)ncnc2cc1OCCCN1CCOCC1 . 0.05 to 0.1 µM

----------
Below, each entry is listed alongside its reported IC50.
TARGET_OF_ASSAY: EGFR WT (Homo sapiens)
Sequence (P00533 25-1210 N540K): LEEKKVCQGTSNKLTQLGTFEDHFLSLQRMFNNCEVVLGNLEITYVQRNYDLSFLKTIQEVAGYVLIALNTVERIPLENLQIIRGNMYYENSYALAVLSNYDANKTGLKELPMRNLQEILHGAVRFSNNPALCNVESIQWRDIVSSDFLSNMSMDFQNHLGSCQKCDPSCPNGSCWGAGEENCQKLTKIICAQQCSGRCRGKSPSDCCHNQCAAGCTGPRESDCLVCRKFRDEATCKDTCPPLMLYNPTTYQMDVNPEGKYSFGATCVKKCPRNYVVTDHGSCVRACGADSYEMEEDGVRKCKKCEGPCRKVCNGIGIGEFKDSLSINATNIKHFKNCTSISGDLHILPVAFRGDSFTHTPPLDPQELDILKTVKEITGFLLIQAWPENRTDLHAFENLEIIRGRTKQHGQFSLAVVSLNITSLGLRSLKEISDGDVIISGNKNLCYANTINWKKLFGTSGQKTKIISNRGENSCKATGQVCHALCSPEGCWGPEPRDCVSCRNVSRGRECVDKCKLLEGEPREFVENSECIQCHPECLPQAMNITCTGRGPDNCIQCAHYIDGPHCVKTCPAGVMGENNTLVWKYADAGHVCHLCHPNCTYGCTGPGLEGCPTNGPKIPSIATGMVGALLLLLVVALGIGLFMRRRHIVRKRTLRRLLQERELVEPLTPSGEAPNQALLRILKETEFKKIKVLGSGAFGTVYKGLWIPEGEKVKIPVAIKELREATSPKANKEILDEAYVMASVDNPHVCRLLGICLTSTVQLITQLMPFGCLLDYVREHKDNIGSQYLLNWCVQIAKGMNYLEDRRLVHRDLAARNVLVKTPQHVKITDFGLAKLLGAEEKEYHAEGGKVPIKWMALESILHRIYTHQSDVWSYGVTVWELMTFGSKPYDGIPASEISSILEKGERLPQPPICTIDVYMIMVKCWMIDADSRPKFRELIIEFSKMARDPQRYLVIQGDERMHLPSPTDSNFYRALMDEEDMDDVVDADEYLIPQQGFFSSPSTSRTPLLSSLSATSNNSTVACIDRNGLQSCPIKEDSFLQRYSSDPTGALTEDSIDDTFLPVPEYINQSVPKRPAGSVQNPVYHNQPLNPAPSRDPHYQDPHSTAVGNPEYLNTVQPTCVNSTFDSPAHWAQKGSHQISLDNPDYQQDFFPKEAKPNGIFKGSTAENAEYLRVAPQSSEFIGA
ASSAY_NOTES: BaF3 cell proliferation assay, EGFR WT (Table A)
Assay type: cell-based
RECORDED_CONDITIONS: potency code, 3 days, CellTiterGlo, read-out: EGFR WT (Activity for Inhibiting EGFR)

| COMPOUND | IC50 |
| --- | --- |
| C=CC(=O)Nc1cc2c(Nc3ccc(OCc4ccccn4)c(Cl)c3)ncnc2cc1OC1CCN(C)C1 (stereo not shown) [compound 16] | 200 to 300 nM |
| C=CC(=O)Nc1cc2c(Nc3cc(Cl)c(OCc4ccccn4)cc3F)ncnc2cc1OCCN1CCOCC1 [compound 57] | 500 to 1000 nM |
| C=CC(=O)Nc1cc2c(Nc3ccc(OCc4ccccn4)c(Cl)c3)ncnc2cc1C#C[C@@H]1CCCN1C [compound 87] | > 1000 nM |

Name the recorded IC50 of the item C=CC(=O)Nc1cc2c(Nc3ccc(OCc4ccccn4)c(Cl)c3)ncnc2cc1C#C[C@@H]1[C@H]2CN(C)C[C@@H]12 [compound 26] in your answer. 300 to 500 nM

----------
TARGET_OF_ASSAY: EGFR V3 (Homo sapiens, UniProt P00533, DELINS30-297G)
Construct: expressed in transfected cells; host or cells: BaF3 (murine pro-B), retroviral pMXs-IRES-Blasticidin
ASSAY_NOTES: Activity for inhibiting EGFR (Table A), EGFR V3 (EGFR-Viii)
Format: cell-based
RECORDED_CONDITIONS: read-out: EGFR V3, potency code (IC50)
MEASURED_METRIC: IC50

| MOLECULE | MEASURED_METRIC | REPORTED_MEASUREMENT |
| --- | --- | --- |
| C=CC(=O)Nc1cc2c(Nc3ccc(OCc4ccccn4)c(Cl)c3)ncnc2cc1OCCN1CCCC1 | IC50 | 10 to 20 nM |

Name the recorded IC50 of the item C=CC(=O)Nc1cc2c(Nc3cnc(NCc4ccccn4)c(Cl)c3)ncnc2cc1OCCN1CCOCC1 in your answer. 50 to 100 nM

Name the recorded IC50 of the item C=CC(=O)Nc1cc2c(Nc3ccc(OCc4ccccn4)c(Cl)c3)ncnc2cc1OCC(C)(C)N(C)C in your answer. 30 to 50 nM

Name the recorded IC50 of the item C=CC(=O)Nc1cc2c(Nc3ccc(Oc4ccc(C)nc4)c(C)c3)ncnc2cc1OCCN1CCOCC1 in your answer. 50 to 100 nM

Name the recorded IC50 of the item CC#CC(=O)Nc1cc2c(Nc3ccc(OCc4ccccn4)c(Cl)c3)ncnc2cc1OCCN1CCN(C)CC1 in your answer. 10 to 20 nM

Name the recorded IC50 of the item CC#CC(=O)Nc1cc2c(Nc3ccc(OCc4ncccn4)c(Cl)c3)ncnc2cc1OCCCN1CCOCC1 in your answer. 30 to 50 nM

Name the recorded IC50 of the item C=CC(=O)Nc1cc2c(Nc3ccc(OCc4ccccn4)cn3)ncnc2cc1OCCN1CCOCC1 in your answer. 200 to 300 nM

Name the recorded IC50 of the item C=CC(=O)Nc1cc2c(Nc3ccc(OCc4ccccn4)c(Cl)c3)ncnc2cc1OCCN(C)C in your answer. 20 to 30 nM

Name the recorded IC50 of the item C=CC(=O)Nc1cc2c(Nc3ccc(OCc4ccccn4)c(Cl)c3)ncnc2cc1O[C@@H]1CCN(C)C1 in your answer. 10 to 20 nM

Name the recorded IC50 of the item C=CC(=O)Nc1cc2c(Nc3ccc(OCc4ccccn4)c(Cl)c3)ncnc2cc1N(C)C1CCN(C)C1 (stereo not drawn) in your answer. 200 to 300 nM

Name the recorded IC50 of the item C=CC(=O)Nc1cc2c(Nc3ccc(OCc4ccccn4)c(Cl)c3)ncnc2cc1OCC1CCCN1 (stereo not drawn) in your answer. 50 to 100 nM

Name the recorded IC50 of the item C=CC(=O)Nc1cc2c(Nc3ccc(OCc4ccccn4)c(Cl)c3)ncnc2cc1OCCN1CC2CN(C)CC2C1 (stereo not drawn) in your answer. 50 to 100 nM

Name the recorded IC50 of the item C=CC(=O)Nc1cc2c(Nc3ccc(Oc4ccc(C)nc4)c(C)c3)ncnc2cc1OC1CCN(C)C1 (stereo not drawn) in your answer. 100 to 200 nM

Name the recorded IC50 of the item C=CC(=O)Nc1cc2c(Nc3ccc(OCc4ccccn4)c(Cl)c3)ncnc2cc1OCCN1CC2(CN(C)C2)C1 in your answer. 50 to 100 nM

Name the recorded IC50 of the item C=CC(=O)Nc1cc2c(Nc3ccc(OCc4ccccn4)c(Cl)c3)ncnc2cc1OCCN1CC2(CCN2C)C1 in your answer. 30 to 50 nM

----------
TARGET_OF_ASSAY: EGFR V3 (Homo sapiens, UniProt P00533, DELINS30-297G)
Construct: expressed in transfected cells; host or cells: BaF3 (murine pro-B), retroviral pMXs-IRES-Blasticidin
ASSAY_NOTES: Activity for inhibiting EGFR (Table A), EGFR V3 (EGFR-Viii)
Assay type: cell-based
RECORDED_CONDITIONS: read-out: EGFR V3, potency code (IC50)
Below, each entry is listed alongside its reported IC50.

Name the recorded IC50 of the item C=CC(=O)Nc1cc2c(Nc3ccc(OCc4ccccn4)c(Cl)c3)ncnc2cc1C#CC(C)(C)N(C)C in your answer. 20 to 30 nM

Name the recorded IC50 of the item C=CC(=O)Nc1cc2c(Nc3ccc(OCc4cccc(F)c4)c(Cl)c3)ncnc2cc1OCCCN1CC(OC)C1 in your answer. 100 to 200 nM

Name the recorded IC50 of the item C=CC(=O)Nc1cc2c(Nc3ccc(OCc4cccc(F)c4)c(Cl)c3)ncnc2cc1OCCN1CC2CCC(C1)O2 in your answer. 100 to 200 nM

Name the recorded IC50 of the item C=CC(=O)Nc1cc2c(Nc3cc(Cl)c(OCc4cccc(F)c4)cc3F)ncnc2cc1OCCN1CC(OC)C1 in your answer. 50 to 100 nM

Name the recorded IC50 of the item C=CC(=O)Nc1cc2c(Nc3ccc(OCc4ccccn4)c(Cl)c3)ncnc2cc1OCCN1CCN(C)CC1 in your answer. 10 to 20 nM

Name the recorded IC50 of the item C=CC(=O)Nc1cc2c(Nc3ccc(OCc4ccccn4)c(Cl)c3)ncnc2cc1N1CCC2(CCN(C)C2)C1 (stereo not shown) in your answer. 50 to 100 nM

Name the recorded IC50 of the item C=CC(=O)Nc1cc2c(Nc3ccc(OCc4ccccn4)c(Cl)c3)ncnc2cc1OCCN1CCOCC1 in your answer. 20 to 30 nM
